Molecular target: IRAK4 (Homo sapiens, UniProt Q9NWZ3)
Sequence (Q9NWZ3 whole entry, species assumed): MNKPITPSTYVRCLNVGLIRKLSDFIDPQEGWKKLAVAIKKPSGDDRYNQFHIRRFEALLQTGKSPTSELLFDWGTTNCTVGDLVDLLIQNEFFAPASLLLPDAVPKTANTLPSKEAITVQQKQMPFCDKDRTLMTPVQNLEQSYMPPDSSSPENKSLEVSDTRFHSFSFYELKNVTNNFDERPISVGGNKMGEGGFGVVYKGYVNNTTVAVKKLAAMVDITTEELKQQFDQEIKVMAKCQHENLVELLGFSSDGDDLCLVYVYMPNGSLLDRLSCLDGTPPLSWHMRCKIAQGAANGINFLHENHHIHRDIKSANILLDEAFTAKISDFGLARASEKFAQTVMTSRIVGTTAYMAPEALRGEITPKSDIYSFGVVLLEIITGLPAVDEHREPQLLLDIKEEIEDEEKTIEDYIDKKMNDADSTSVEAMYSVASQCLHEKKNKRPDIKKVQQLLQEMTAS
Test: Hibit fluorescence detection of proteolysis (IRAK4-HiBiT in HEK293T cells)
Format: cell-based
Parameters: host or cells: HEK293T (ATCC)
Conditions: HEK-293T
Each item that follows carries a reported Dmax.

Worked cases, answers included:
{"Molecule": "Cn1c(=O)n(C2CCC(=O)NC2=O)c2cccc(N[C@H]3CC[C@H](N(C)C[C@H]4CC[C@H](n5cc(-n6cc(-c7cnn8ccc(NCC9CC9)nc78)nn6)c(C(F)F)n5)CC4)CC3)c21 (some centres unmarked) [Compound 226]", "Dmax": "> 80%"}
{"Molecule": "Cn1c(=O)n(C2CCC(=O)NC2=O)c2cccc(N3CCN(C4CCN(C[C@H]5CC[C@H](n6cc(-n7cc(-c8cnn9ccc(N%10CCOCC%10)nc89)nn7)c(C(F)F)n6)CC5)CC4)CC3)c21 (some centres unmarked) [Example 40]", "Dmax": "> 80%"}
{"Molecule": "C[C@H]1CN(c2cccc3c2n(C)c(=O)n3C2CCC(=O)NC2=O)CCN1C[C@H]1CC[C@H](n2cc(-n3cc(-c4ccc5cc(C(N)=O)cnn45)nn3)c(C(F)F)n2)CC1 (some centres unmarked) [Example 96]", "Dmax": "> 80%"}
{"Molecule": "Cn1c(=O)n(C2CCC(=O)NC2=O)c2cccc(N3CCC(N4CCN(C[C@H]5CC[C@H](n6cc(-n7cc(-c8cnn9ccc(NCC%10CC%10)nc89)nn7)c(C(F)F)n6)CC5)CC4)CC3)c21 (some centres unmarked) [Example 114]", "Dmax": "> 80%"}

Reported Dmax, molecule Cn1c(=O)n(C2CCC(=O)NC2=O)c2cccc(N3CCN(C4CCN(C[C@H]5CC[C@H](n6cc(-n7cc(-c8cnn9cc(C#N)cnc89)nn7)c(C(F)F)n6)CC5)CC4)CC3)c21 (some centres unmarked) [Compound 206] : ____
< 60%
